The origin of these recorded values is PubChem BioAssay.

test: MM1S cell viability effects, profiling panel, calcein-AM fluorescence, 48 h, basal (AID 1165);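 note: viability of MM1S multiple myeloma cells under basal unstimulated conditions; test concentration not given here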
protocol-conditions: higher = more signal
Here, each record is paired with measured z-score data.
assay-metric: z-score

CN(C)CCCCNC(=O)[C@H]1C[C@H]2C(=O)NCC(=O)N2[C@H]1c1cccc(OCCO)c1 = 0.585
COCCOC(=O)N1C(=O)[C@@]2(c3cc(C#CC4(O)CCCCCC4)ccc31)[C@H](c1ccc(OCCO)cc1)N1[C@H](c3ccccc3)[C@H](c3ccccc3)OC(=O)[C@H]1[C@@H]2C(=O)N1CCCCCCC1 = -0.834
COC(=O)C(CC#Cc1ccc2c(c1)[C@]1(C(=O)N2)[C@H](c2ccc(O)cc2)N2[C@H](c3ccccc3)[C@H](c3ccccc3)OC(=O)[C@H]2[C@@H]1C(=O)N1CCc2cc(OC)c(OC)cc2C1)C(=O)OC = -1.71
